This listing pairs molecules with measured EC50.
# System: dengue virus type 2
# test.name: Functional immunofluorescence assay to measure dose dependent changes in antiviral-drug inhibitory efficacy against Dengue virus type 2 Thailand/16681/84 in Vero E6/TMPRSS2 cells (cotreated with P-gp inhibitor, Elacridar). Cells are treated with antiviral candidates that are serially diluted, following infection, cells are fixed. EC50 is reported via analysis of immunofluorescence staining. The assay has been performed by Icahn School of Medicine at Mount Sinai.
# Format: organism-based, Chlorocebus sabaeus, VeroE6/TMPRSS2
# experimental.parameters: Dengue virus, VeroE6/TMPRSS2
Report the value in µM with no unit label.

Would you please look over these solved cases?
INSERT INTO measurements (chemical_structure, test_system, numeric_result) VALUES
  ('C=CC[C@H](Nc1cc(Cl)cc(NC(=O)OCc2ccccc2)c1)c1cccc(-c2nn[nH]n2)c1', 'dengue virus type 2', 0.449),
  ('Cc1ccc(-c2nnn[nH]2)cc1NC(=O)c1cc(Cl)cc(NC(=O)OCc2ccccc2)c1', 'dengue virus type 2', 40.5),
  ('Nc1cc(Cl)cc(C(=O)Nc2ccc3c(c2)CNC3)c1N', 'dengue virus type 2', 41.9);

What value of EC50 has been reported for the following molecule? O=C(Nc1cc(Cl)cc(C(=O)Nc2cccc(C3CCNCC3)c2)c1)OCc1ccccc1 3.24

Please report the recorded EC50 for O=C(NS(=O)(=O)C1CC1)c1cc(Cl)ccc1NS(=O)(=O)c1ccc(Oc2ccccc2Cl)cc1 . 42.5
